target: L1 (DV1-GV4) antigen: soluble heterodimeric γδ TCR in leucine zipper format (TRDV1/TRGV4) (human); assay: DELFIA affinity ranking with 100 nM biotinylated L1
Sequence (main, as listed by the source): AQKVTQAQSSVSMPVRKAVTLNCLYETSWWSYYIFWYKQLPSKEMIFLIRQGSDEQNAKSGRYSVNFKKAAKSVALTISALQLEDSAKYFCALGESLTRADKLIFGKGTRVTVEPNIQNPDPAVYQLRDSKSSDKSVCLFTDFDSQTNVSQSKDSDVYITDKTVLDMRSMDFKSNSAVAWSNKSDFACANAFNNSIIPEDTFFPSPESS
Define the label as 1 when DELFIA signal, 100 nM L1 is strictly less than 20000 and as 0 in all remaining cases.

Req: Determine whether this binder shows DELFIA signal, 100 nM L1 lower than 20000 (ties excluded): 1245_P02_F07 (scFv) (scFv) scFv: QVQLQQSGPGLVKPSQTLSLTCVISGDSVSSNSAAWNWIRQSPSRGLEWLGRTYYRSKWYNDYAVSVKSRITINPDTSKNQFSLQLNSVTPEDTAVYYCARDYYYSMDVWGQGTMVTVSSGGGGSGGGGSGGGASDIQMTQSPSTLSASVGDRVTITCRASQSISSWLAWYQQKPGKAPKLLIYDASSLESGVPLRFSGSGSGTEFTLTISSLQPDDFATYYCQQSHSHPPTFGPGTKVDIK
Resp: 1

Req: Say whether its DELFIA signal, 100 nM L1 is strictly beneath 20000. Entry: 1139_P01_E04 (scFv) (scFv) scFv: QVQLQQSGPGLVKPSQTLSLTCAISGDSVSSNSAAWNWIRQSPSRGLEWLGRTYYRSKWYNDYAVSVRSRITINPDTSKNQFSLQLNSVTPEDTAVYYCARSWNDAFDIWGQGTTVTVSSGGGGSGGGGSGGGASDIVMTQSPSTLSASIGDRVTITCRAGQSISTWLAWYQQKPGKAPKLLIYDASSLESGVPLRFSGSGSGTDFTLTISSLQPEDFATYYCQQSYSTPLTFGGGTKVEIK
Resp: 0

Req: Determine whether this binder shows DELFIA signal, 100 nM L1 lower than 20000 (ties excluded): 1251_P02_G10 (scFv) (scFv) scFv: EVQLVESGGGLVQPGGSLRLSCAASGFTFSDYYMSWIRQAPGKGLEWVSYISSSGSTIYYADSVKGRFTISRDNAKNSLYLQMNSLRAEDTAVYYCARHSWNDAFDIWGRGTLVTVSSGGGGSGGGGSGGGASDIQMTQSPSSLSASVGDRVTITCRASQSISSHLNWYQQKPGKAPKLLIYAASSLQSGVPSRFSASGSGTDFTLTISSLQPEDFATYYCQQSYSTLLTFGGGTKVEIK
Resp: 1

Req: Quick check: does 1245_P02_G04 (scFv) (scFv) scFv: QVQLQQSGPGLVKPSQTLSLTCAISGDSVSSKSAAWNWIRQSPSRGLEWLGRTYYRSKWSTDYAASVKSRITINPDTSKNQLSLQLNSVTPEDTAVYYCARTWSGYVDVWGQGTLVTVSSGGGGSGGGGSGGGASDIQMTQSPPALSASVGDRVTITCRASQDINDWLAWYQHKPGKAPKLLIYDASSLESGVPSRFSGSGSGTEFTLTISSLQPDDFATYYCQQSYSTPQVTFGQGTRLEIK have DELFIA signal, 100 nM L1 under 20000?
Resp: 1

Req: Threshold test, DELFIA signal, 100 nM L1 < 20000: 1245_P01_G09 (scFv) (scFv) scFv: QVQLQQSGPGLVKPSQTLSLTCAISGDSVSSNSAAWNWIRQSPSRGLEWLGRTYYGSKWYNEYALSVKSRIIINPDTSKNQFSLQLNSVTPEDTAVYYCARDYYYSMDVWGQGTLVTVSSGGGGSGGGGSGGGASDIVMTQSPSTLSASIGDRVTITCRAGQSISTWLAWYQQKPGKAPKLLIYDASSLESGVPLRFSGSGSGTEFTLAISSLQPDDFATYYCQQSYSTPVTFGQGTKVEIK
Resp: 1
